Where do these numbers come from? They come from patent US12344597B2.

Target: human LPA1 receptor (Homo sapiens (Human))
Sequence (Q92633 whole entry): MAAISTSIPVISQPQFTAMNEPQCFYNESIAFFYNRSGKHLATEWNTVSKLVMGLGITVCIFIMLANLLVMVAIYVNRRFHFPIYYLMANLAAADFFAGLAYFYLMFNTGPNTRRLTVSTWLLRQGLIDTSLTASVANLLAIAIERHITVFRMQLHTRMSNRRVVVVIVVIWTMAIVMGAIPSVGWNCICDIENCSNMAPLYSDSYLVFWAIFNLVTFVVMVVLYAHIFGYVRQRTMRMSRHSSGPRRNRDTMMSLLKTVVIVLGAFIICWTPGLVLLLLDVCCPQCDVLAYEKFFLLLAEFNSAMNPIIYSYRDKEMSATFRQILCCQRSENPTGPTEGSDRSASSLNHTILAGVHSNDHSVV
Test: Beta-arrestin recruitment assay to determine IC50 values for human LPAR1
Conditions: antagonist mode, Tango EDG2-bla U2OS cells, LPA 18:1 500 nM final
Description: Beta-Arrestin Recruitment Assay to Determine IC50 Values for Human LPAR1 The Tango™ EDG2-bla U2OS cells are obtained from Invitrogen. […] Upon LPA (agonist) binding, LPA1 receptor gets activated, leading to arrestin-protease recruitment and proteolytic release of the transcription factor: The transcription factor then regulates transcription of a beta-lactamase reporter construct, which is measured upon addition of the live-cell substrate. […]
pIC50: −log10 of the molar value.
quantity: pIC50

>  <structure_notation>
COC(=O)[C@H]1C[C@H]1C(=O)N1CC(C(=O)Nc2ccc(C)nc2OC(F)F)(c2ccccc2C(C)C)C1

>  <measured_on>
human LPA1 receptor (Homo sapiens (Human))

>  <quantity>
pIC50

>  <result_value>
7.29

$$$$
>  <structure_notation>
CNCCN1CC(C(=O)Nc2ccc(C)nc2OC(F)F)(c2ccccc2C(C)C)C1

>  <measured_on>
human LPA1 receptor (Homo sapiens (Human))

>  <quantity>
pIC50

>  <result_value>
7.32

$$$$
>  <structure_notation>
Cc1ccc(NC(=O)C2(c3ccccc3C(C)C)CCN(C(=O)Cc3cc(O)n[nH]3)CC2)c(OC(F)F)n1

>  <measured_on>
human LPA1 receptor (Homo sapiens (Human))

>  <quantity>
pIC50

>  <result_value>
7.82

$$$$
>  <structure_notation>
Cc1ccc(NC(=O)C2(c3ccccc3C(C)C)CN(CCCC(C)(C)C(=O)O)C2)c(OC(F)F)n1

>  <measured_on>
human LPA1 receptor (Homo sapiens (Human))

>  <quantity>
pIC50

>  <result_value>
7.82

$$$$
>  <structure_notation>
Cc1ccc(NC(=O)C2(c3ccccc3C(C)C)CN(c3ncc(F)cn3)C2)c(OC(F)F)n1

>  <measured_on>
human LPA1 receptor (Homo sapiens (Human))

>  <quantity>
pIC50

>  <result_value>
8.52

$$$$
>  <structure_notation>
Cc1ccc(NC(=O)C2(c3ccccc3C(C)C)CN(S(=O)(=O)CCC(=O)NOCc3ccccc3)C2)c(OC(F)F)n1

>  <measured_on>
human LPA1 receptor (Homo sapiens (Human))

>  <quantity>
pIC50

>  <result_value>
6.96

$$$$
>  <structure_notation>
Cc1ccc(NC(=O)C2(c3ccccc3C(C)C)CN(S(=O)(=O)CCCC(=O)O)C2)c(OC(F)F)n1

>  <measured_on>
human LPA1 receptor (Homo sapiens (Human))

>  <quantity>
pIC50

>  <result_value>
8.15

$$$$
>  <structure_notation>
Cc1ccc(NC(=O)C2(c3nccnc3C(C)C)CN(S(N)(=O)=O)C2)c(OC(F)F)n1

>  <measured_on>
human LPA1 receptor (Homo sapiens (Human))

>  <quantity>
pIC50

>  <result_value>
7.57

$$$$

====

The reader will find reported pIC50 values listed item by item below.
Target: human LPA1 receptor (Homo sapiens (Human))
Experiment: Beta-arrestin recruitment assay to determine IC50 values for human LPAR1
Conditions: antagonist mode, Tango EDG2-bla U2OS cells, LPA 18:1 500 nM final
pIC50: −log10 of the molar value.

>  <molecule>
Cc1ccc(NC(=O)C2(c3ccccc3C(C)C)CCN(C(=O)Cn3cnnn3)CC2)c(OC(F)F)n1 [Ex 12-20]

>  <pIC50>
8.70

$$$$
>  <molecule>
CCNCCN1CC(C(=O)Nc2ccc(C)nc2OC(F)F)(c2ccccc2C(C)C)C1 [Ex 11-63]

>  <pIC50>
7.04

$$$$
>  <molecule>
Cc1ccc(NC(=O)C2(c3ccccc3C(C)C)CCN(C(=O)CCC(=O)C(F)(F)F)CC2)c(OC(F)F)n1 [Ex 12-12]

>  <pIC50>
8.15

$$$$
>  <molecule>
COC(=O)C(C)(C)CS(=O)(=O)N1CC(C(=O)Nc2ccc(C)nc2OC(F)F)(c2ccccc2C(C)C)C1 [Ex 13-11]

>  <pIC50>
6.44

$$$$
>  <molecule>
Cc1ccc(NC(=O)C2(c3ccccc3C(C)C)CN(CCC3(C(=O)O)CCOC3)C2)c(OC(F)F)n1 (stereo not shown) [Ex 11-76]

>  <pIC50>
7.74

$$$$
>  <molecule>
Cc1ccc(NC(=O)C2(c3ccccc3C(C)C)CN(C(=O)/C=C\C(=O)O)C2)c(OC(F)F)n1 [Ex 12-77]

>  <pIC50>
7.51

$$$$
>  <molecule>
Cc1ccc(NC(=O)C2(c3ccccc3C(C)C)CN(C(=O)c3cc(O)no3)C2)c(OC(F)F)n1 [Ex 12-16]

>  <pIC50>
8.05

$$$$
>  <molecule>
Cc1ccc(NC(=O)C2(c3ccccc3C(C)C)CN(CC3(CO)COC3)C2)c(OC(F)F)n1 [Ex 11-89]

>  <pIC50>
7.14

$$$$
>  <molecule>
Cc1ccc(NC(=O)C2(c3ccccc3C(C)C)CN(C(=O)/C=C/C(=O)O)C2)c(OC(F)F)n1 [Ex 12-75]

>  <pIC50>
7.30

$$$$
>  <molecule>
Cc1ccc(NC(=O)C2(c3ccccc3C(C)C)CN(CCNCC(=O)O)C2)c(OC(F)F)n1 [Ex 11-80]

>  <pIC50>
6.53

$$$$
>  <molecule>
Cc1ccc(NC(=O)C2(c3ncccc3C(C)C)CN(c3nc(C)ccc3F)C2)c(OC(F)F)n1 [Ex 65]

>  <pIC50>
7.43

$$$$
>  <molecule>
Cc1ccc(NC(=O)C2(c3ccccc3C(C)C)CN(C(=O)C[C@H](O)C(=O)O)C2)c(OC(F)F)n1 [Ex 12-34]

>  <pIC50>
7.48

$$$$
>  <molecule>
Cc1ccc(NC(=O)C2(c3ccccc3C(C)C)CCN(C(=O)OCC(=O)O)CC2)c(OC(F)F)n1 [Ex 14-2]

>  <pIC50>
8.37

$$$$
>  <molecule>
Cc1ccc(NC(=O)C2(c3ccccc3C3=CCCC3)CN(C(=O)CC(C)(C)C(=O)O)C2)c(OC(F)F)n1 [Ex 31-4]

>  <pIC50>
7.05

$$$$
>  <molecule>
COCCNCC(=O)N1CCC(C(=O)Nc2ccc(C)nc2OC(F)F)(c2ccccc2C(C)C)CC1 [Ex 12-48]

>  <pIC50>
8.05

$$$$
>  <molecule>
Cc1ccc(NC(=O)C2(c3ccccc3C(C)C)CN(CC(C)(C)CO)C2)c(OC(F)F)n1 [Ex 11-17]

>  <pIC50>
7.32

$$$$
